// provenance: patent US20210388087A1

Target: T1, Human CD3eg linker (human)
T1 construct: Single-chain construct; also called recombinant human CD3
T1 chain: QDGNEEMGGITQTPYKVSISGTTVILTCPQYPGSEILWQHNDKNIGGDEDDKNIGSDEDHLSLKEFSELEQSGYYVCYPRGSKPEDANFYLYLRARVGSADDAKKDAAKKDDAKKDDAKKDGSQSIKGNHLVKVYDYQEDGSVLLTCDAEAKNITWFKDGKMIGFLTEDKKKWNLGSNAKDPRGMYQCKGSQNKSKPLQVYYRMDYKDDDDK
Assay: SPR; fold vs parent H183/L072
Assay readout: fold change of affinity (fold)
Please respond with the number in fold and leave the unit unwritten.

Known fold change of affinity results, listed for orientation:
response.value for H183/L072 VL A25K (antibody, name in Kabat numbering, V domains shown) VH: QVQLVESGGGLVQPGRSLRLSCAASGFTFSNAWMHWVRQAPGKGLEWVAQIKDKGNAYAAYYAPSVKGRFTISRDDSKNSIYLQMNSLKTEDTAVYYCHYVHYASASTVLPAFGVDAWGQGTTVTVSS VL: DIVMTQSPLSLPVTPGEPASISCQKSQELVHMNRNTYLHWYQQKPGQAPRLLIYKVSNRFPGVPDRFSGSGSGTDFTLKISRVEAEDVGVYYCAQGTSVPFTFGQGTKLEIK (field: fold change of affinity) = 0

response.value for H183/L072 VL Q27V (antibody, name in Kabat numbering, V domains shown) VH: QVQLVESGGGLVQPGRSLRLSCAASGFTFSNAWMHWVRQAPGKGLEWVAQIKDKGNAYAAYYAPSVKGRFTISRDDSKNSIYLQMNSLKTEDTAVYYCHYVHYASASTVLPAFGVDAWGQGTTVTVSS VL: DIVMTQSPLSLPVTPGEPASISCQASVELVHMNRNTYLHWYQQKPGQAPRLLIYKVSNRFPGVPDRFSGSGSGTDFTLKISRVEAEDVGVYYCAQGTSVPFTFGQGTKLEIK (field: fold change of affinity) = 0.9

response.value for H183/L072 VL E27aI (antibody, name in Kabat numbering, V domains shown) VH: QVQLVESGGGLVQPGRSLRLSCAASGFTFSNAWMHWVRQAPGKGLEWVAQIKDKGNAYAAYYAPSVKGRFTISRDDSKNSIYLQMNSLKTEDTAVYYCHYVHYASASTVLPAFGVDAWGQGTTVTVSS VL: DIVMTQSPLSLPVTPGEPASISCQASQILVHMNRNTYLHWYQQKPGQAPRLLIYKVSNRFPGVPDRFSGSGSGTDFTLKISRVEAEDVGVYYCAQGTSVPFTFGQGTKLEIK (field: fold change of affinity) = 1.1

response.value for H183/L072 VL R29N (antibody, name in Kabat numbering, V domains shown) VH: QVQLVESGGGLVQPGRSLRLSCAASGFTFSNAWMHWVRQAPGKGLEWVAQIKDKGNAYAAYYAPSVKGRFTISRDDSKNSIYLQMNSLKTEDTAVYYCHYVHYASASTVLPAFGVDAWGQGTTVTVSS VL: DIVMTQSPLSLPVTPGEPASISCQASQELVHMNNNTYLHWYQQKPGQAPRLLIYKVSNRFPGVPDRFSGSGSGTDFTLKISRVEAEDVGVYYCAQGTSVPFTFGQGTKLEIK (field: fold change of affinity) = 0.3

response.value for H183/L072 VL M27eS (antibody, name in Kabat numbering, V domains shown) VH: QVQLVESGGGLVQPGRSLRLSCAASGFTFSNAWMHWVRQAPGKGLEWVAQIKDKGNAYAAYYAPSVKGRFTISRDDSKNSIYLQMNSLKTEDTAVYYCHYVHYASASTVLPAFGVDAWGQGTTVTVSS VL: DIVMTQSPLSLPVTPGEPASISCQASQELVHSNRNTYLHWYQQKPGQAPRLLIYKVSNRFPGVPDRFSGSGSGTDFTLKISRVEAEDVGVYYCAQGTSVPFTFGQGTKLEIK (field: fold change of affinity) = 1.2

Further cases:
response.value for H183/L072 VL A89S (antibody, name in Kabat numbering, V domains shown) VH: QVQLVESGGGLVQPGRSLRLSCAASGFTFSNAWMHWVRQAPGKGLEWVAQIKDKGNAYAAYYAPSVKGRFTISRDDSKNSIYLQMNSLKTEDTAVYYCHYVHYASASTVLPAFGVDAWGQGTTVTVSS VL: DIVMTQSPLSLPVTPGEPASISCQASQELVHMNRNTYLHWYQQKPGQAPRLLIYKVSNRFPGVPDRFSGSGSGTDFTLKISRVEAEDVGVYYCSQGTSVPFTFGQGTKLEIK (field: fold change of affinity) = 0.6

response.value for H183/L072 VL E27aP (antibody, name in Kabat numbering, V domains shown) VH: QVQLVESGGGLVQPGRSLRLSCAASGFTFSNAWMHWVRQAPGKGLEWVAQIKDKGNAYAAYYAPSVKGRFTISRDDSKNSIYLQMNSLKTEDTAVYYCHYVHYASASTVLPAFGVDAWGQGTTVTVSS VL: DIVMTQSPLSLPVTPGEPASISCQASQPLVHMNRNTYLHWYQQKPGQAPRLLIYKVSNRFPGVPDRFSGSGSGTDFTLKISRVEAEDVGVYYCAQGTSVPFTFGQGTKLEIK (field: fold change of affinity) = 1

response.value for H183/L072 VL L33F (antibody, name in Kabat numbering, V domains shown) VH: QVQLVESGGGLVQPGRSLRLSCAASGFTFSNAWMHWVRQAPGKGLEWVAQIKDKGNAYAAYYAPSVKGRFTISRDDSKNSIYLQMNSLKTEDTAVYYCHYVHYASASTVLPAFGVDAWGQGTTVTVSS VL: DIVMTQSPLSLPVTPGEPASISCQASQELVHMNRNTYFHWYQQKPGQAPRLLIYKVSNRFPGVPDRFSGSGSGTDFTLKISRVEAEDVGVYYCAQGTSVPFTFGQGTKLEIK (field: fold change of affinity) = 1.1

response.value for H183/L072 VL G91D (antibody, name in Kabat numbering, V domains shown) VH: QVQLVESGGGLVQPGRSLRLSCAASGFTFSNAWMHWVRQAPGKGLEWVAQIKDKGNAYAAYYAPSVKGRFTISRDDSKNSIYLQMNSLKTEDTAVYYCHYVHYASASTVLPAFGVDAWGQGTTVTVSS VL: DIVMTQSPLSLPVTPGEPASISCQASQELVHMNRNTYLHWYQQKPGQAPRLLIYKVSNRFPGVPDRFSGSGSGTDFTLKISRVEAEDVGVYYCAQDTSVPFTFGQGTKLEIK (field: fold change of affinity) = 0

response.value for H183/L072 VL N28A (antibody, name in Kabat numbering, V domains shown) VH: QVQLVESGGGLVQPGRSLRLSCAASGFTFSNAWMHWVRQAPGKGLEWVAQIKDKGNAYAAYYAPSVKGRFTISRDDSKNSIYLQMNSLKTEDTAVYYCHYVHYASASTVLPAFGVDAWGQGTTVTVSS VL: DIVMTQSPLSLPVTPGEPASISCQASQELVHMARNTYLHWYQQKPGQAPRLLIYKVSNRFPGVPDRFSGSGSGTDFTLKISRVEAEDVGVYYCAQGTSVPFTFGQGTKLEIK (field: fold change of affinity) = 0
